# Protocol Details: Oral bioavailability in dog at 1.7 mg/kg by LC-MS/MS analysis
# Format: ADME, organism-based, Canis lupus familiaris
# Condition Label: in vivo
Assay Readout: bioavailability (%)
Just the number please, in %, no unit attached.

Given COc1cc(C(F)(F)F)ccc1-c1ncnc2cc(S(=O)(=O)Nc3nccs3)ccc12 , respond with its bioavailability.
53

###

# Protocol Details: Intrinsic clearance in human liver microsomes at 1 uM measured after 40 mins in presence of NADPH by LC-MS/MS analysis
# Format: ADME
# Condition Label: read-out: CLH
Assay Readout: microsomal CLint at 1 µM (µL/min/mg)
Just the number please, in µL/min/mg, no unit attached.

Look over these answered cases.
| Record Smiles | U | microsomal CLint at 1 µM |
| --- | --- | --- |
| COc1cc(C(F)(F)F)ccc1-c1cccc2cc(S(=O)(=O)Nc3ncccn3)ccc12 | µL/min/mg | 17 |
| COc1cc(C(F)(F)F)ccc1-c1cccc2cc(S(=O)(=O)Nc3nccs3)ccc12 | µL/min/mg | 25 |
| COc1cc(C(F)(F)F)ccc1-c1cccc2cc(S(=O)(=O)Nc3ncns3)ccc12 | µL/min/mg | 15 |
| Cc1cc(C(F)(F)F)ccc1-c1cccc2cc(S(=O)(=O)Nc3ncns3)ccc12 | µL/min/mg | 15 |
| COc1cc(C(F)(F)F)ccc1-c1cccc2cc(S(=O)(=O)Nc3cncs3)ccc12 | µL/min/mg | 46 |

Given COc1cc(C(F)(F)F)ccc1-c1cccc2cc(S(=O)(=O)Nc3ccccn3)ccc12 , respond with its microsomal CLint at 1 µM.
16

Given O=S(=O)(Nc1ncns1)c1ccc2c(-c3ccc(C(F)(F)F)cc3O)cccc2c1 , respond with its microsomal CLint at 1 µM.
25
